experimental-conditions: 282.15 K; 101.33 kPa; Liquid; Pulse-echo method
readout: speed of sound (m/s)

C[NH2+]CCO.O=C[O-] [2-hydroxy-N-methylethanaminium formate]: 1846.8
CCCC(=O)[O-].C[NH2+]CCO [N-methyl-2-hydroxyethylammonium butanoate]: 1668.4
CC(C)C(=O)[O-].C[NH2+]CCO [2-hydroxy-N-methylethanaminium isobutyrate]: 1657.7
CCC(=O)[O-].C[NH2+]CCO [2-hydroxy-N-methylethanaminium propionate]: 1739
CCCCC(=O)[O-].C[NH2+]CCO [2-hydroxy-N-methylethanaminium pentanoate]: 1601.9

---

experimental-conditions: 317.66 K; 101.33 kPa; Liquid; Vibrating tube method
readout: mass density (kg/m3)

CCCCC(=O)[O-].C[NH2+]CCO [2-hydroxy-N-methylethanaminium pentanoate]: 1003.04
CC(C)C(=O)[O-].C[NH2+]CCO [2-hydroxy-N-methylethanaminium isobutyrate]: 1030.69
CCCC(=O)[O-].C[NH2+]CCO [N-methyl-2-hydroxyethylammonium butanoate]: 1026.06
CCC(=O)[O-].C[NH2+]CCO [2-hydroxy-N-methylethanaminium propionate]: 1058.51
CC(=O)[O-].C[NH2+]CCO [N-methyl-2-hydroxyethylammonium acetate]: 1089.02
C[NH2+]CCO.O=C[O-] [2-hydroxy-N-methylethanaminium formate]: 1117.38
